Sourced from paper PMC10004777

Known Viability of Cells (% of Control) of a selection of molecules
- Tested on: HK-2 cells
- test_protocol: Cell viability (MTT) assay, HK-2 normal cells (cytotoxicity)
- Type: cell-based
- condition_parameters: 100 µM
quantity_name: Viability of Cells (% of Control)

{"molecular_string": "C[C@H](CC(=O)C[C@@H](C)[C@H]1C[C@H](O)[C@@]2(C)C3=C(C(=O)C[C@]12C)[C@@]1(C)CCC(=O)C(C)(C)[C@@H]1C[C@@H]3O)C(=O)NCCc1ccc(Cl)cc1", "quantity_name": "Viability of Cells (% of Control)", "endpoint_value": "111.2 ± 6.5 % of Control"}
{"molecular_string": "Cc1ccc(CNC(=O)[C@H](C)CC(=O)C[C@@H](C)[C@H]2C[C@H](O)[C@@]3(C)C4=C(C(=O)C[C@]23C)[C@@]2(C)CCC(=O)C(C)(C)[C@@H]2C[C@@H]4O)cc1", "quantity_name": "Viability of Cells (% of Control)", "endpoint_value": "97.0 ± 8.8 % of Control"}
{"molecular_string": "C[C@H](CC(=O)C[C@@H](C)[C@H]1C[C@H](O)[C@@]2(C)C3=C(C(=O)C[C@]12C)[C@@]1(C)CCC(=O)C(C)(C)[C@@H]1C[C@@H]3O)C(=O)N1CCN(c2ccccc2)CC1", "quantity_name": "Viability of Cells (% of Control)", "endpoint_value": "111.0 ± 8.7 % of Control"}
{"molecular_string": "C[C@H](CC(=O)C[C@@H](C)[C@H]1C[C@H](O)[C@@]2(C)C3=C(C(=O)C[C@]12C)[C@@]1(C)CCC(=O)C(C)(C)[C@@H]1C[C@@H]3O)C(=O)NCc1ccc(F)cc1", "quantity_name": "Viability of Cells (% of Control)", "endpoint_value": "80.2 ± 9.0 % of Control"}
{"molecular_string": "Cc1ccc(CCNC(=O)[C@H](C)CC(=O)C[C@@H](C)[C@H]2C[C@H](O)[C@@]3(C)C4=C(C(=O)C[C@]23C)[C@@]2(C)CCC(=O)C(C)(C)[C@@H]2C[C@@H]4O)cc1", "quantity_name": "Viability of Cells (% of Control)", "endpoint_value": "91.1 ± 5.5 % of Control"}
{"molecular_string": "C[C@H](CC(=O)C[C@@H](C)[C@H]1C[C@H](O)[C@@]2(C)C3=C(C(=O)C[C@]12C)[C@@]1(C)CCC(=O)C(C)(C)[C@@H]1C[C@@H]3O)C(=O)NCc1ccc(Cl)cc1", "quantity_name": "Viability of Cells (% of Control)", "endpoint_value": "81.3 ± 3.3 % of Control"}
{"molecular_string": "C[C@H](CC(=O)C[C@@H](C)[C@H]1C[C@H](O)[C@@]2(C)C3=C(C(=O)C[C@]12C)[C@@]1(C)CCC(=O)C(C)(C)[C@@H]1C[C@@H]3O)C(=O)NC1Cc2ccccc2C1", "quantity_name": "Viability of Cells (% of Control)", "endpoint_value": "80.1 ± 2.8 % of Control"}
{"molecular_string": "C[C@H](CC(=O)C[C@@H](C)[C@H]1C[C@H](O)[C@@]2(C)C3=C(C(=O)C[C@]12C)[C@@]1(C)CCC(=O)C(C)(C)[C@@H]1C[C@@H]3O)C(=O)NCCc1ccc(F)cc1", "quantity_name": "Viability of Cells (% of Control)", "endpoint_value": "86.9 ± 2.7 % of Control"}
{"molecular_string": "C[C@H](CC(=O)C[C@@H](C)[C@H]1C[C@H](O)[C@@]2(C)C3=C(C(=O)C[C@]12C)[C@@]1(C)CCC(=O)C(C)(C)[C@@H]1C[C@@H]3O)C(=O)NCc1cc(Cl)cc(Cl)c1", "quantity_name": "Viability of Cells (% of Control)", "endpoint_value": "91.0 ± 2.4 % of Control"}
